Target: RET (Homo sapiens, UniProt P07949)
Sequence (P07949 29-1114): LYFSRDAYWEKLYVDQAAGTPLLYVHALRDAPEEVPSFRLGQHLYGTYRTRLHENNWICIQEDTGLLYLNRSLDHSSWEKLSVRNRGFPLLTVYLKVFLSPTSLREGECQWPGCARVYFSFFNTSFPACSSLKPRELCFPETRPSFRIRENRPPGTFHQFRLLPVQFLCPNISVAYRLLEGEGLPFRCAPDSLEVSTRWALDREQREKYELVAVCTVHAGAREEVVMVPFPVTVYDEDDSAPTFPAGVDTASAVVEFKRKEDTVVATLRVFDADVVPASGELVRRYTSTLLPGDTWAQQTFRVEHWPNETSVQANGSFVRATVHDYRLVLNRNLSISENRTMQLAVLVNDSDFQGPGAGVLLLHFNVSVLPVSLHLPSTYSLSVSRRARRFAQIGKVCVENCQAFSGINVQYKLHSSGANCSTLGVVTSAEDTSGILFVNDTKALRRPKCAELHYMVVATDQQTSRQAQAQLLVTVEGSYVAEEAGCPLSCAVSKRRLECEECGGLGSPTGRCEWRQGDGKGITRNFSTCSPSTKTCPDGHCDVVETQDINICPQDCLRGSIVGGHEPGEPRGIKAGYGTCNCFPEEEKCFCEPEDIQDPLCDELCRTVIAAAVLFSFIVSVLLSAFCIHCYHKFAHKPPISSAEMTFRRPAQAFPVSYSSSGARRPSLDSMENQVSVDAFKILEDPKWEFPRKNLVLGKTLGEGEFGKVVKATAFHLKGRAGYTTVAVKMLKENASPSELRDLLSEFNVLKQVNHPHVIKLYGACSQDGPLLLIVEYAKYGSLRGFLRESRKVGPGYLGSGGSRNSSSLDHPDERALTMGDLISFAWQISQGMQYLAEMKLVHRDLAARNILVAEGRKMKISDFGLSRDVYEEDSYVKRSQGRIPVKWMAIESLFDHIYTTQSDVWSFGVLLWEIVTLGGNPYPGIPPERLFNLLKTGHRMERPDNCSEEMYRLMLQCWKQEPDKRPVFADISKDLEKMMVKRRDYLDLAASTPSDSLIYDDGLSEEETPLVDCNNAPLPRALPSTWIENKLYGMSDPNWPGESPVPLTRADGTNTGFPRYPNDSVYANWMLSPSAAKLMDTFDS
Assay: ELISA kinase assay, RET
Assay type: biochemical
Conditions: read-out: RET inhibition @10 nmol/L
Entries and their measured inhibition at 0.01 µM follow.
Please give a number only; it is taken to be in %.

Consider the following illustrative entries.
{"columns": ["compound", "data_value"],
 "data": [
  ["Cc1ccc(C(=O)Nc2cc(CN3CCN(C4CCCC4)CC3)cc(C(F)(F)F)c2)cc1-c1ccc2nc(Nc3cnn(C)c3)ncc2c1 [Compound 27]", 92.8],
  ["Cc1ccc(C(=O)Nc2cc(CN3CCN(C)CC3)cc(C(F)(F)F)c2)cc1-c1ccc2nc(Nc3cnn(C)c3)ncc2c1 [Compound 25]", 93.9],
  ["CC(=O)N1CCN(Cc2cc(NC(=O)c3ccc(C)c(-c4ccc5nc(Nc6cnn(C)c6)ncc5c4)c3)cc(C(F)(F)F)c2)CC1 [Compound 28]", 91.8]
]}

Query block: # inhibition at 0.01 µM lookup, item Cc1ccc(C(=O)Nc2cc(CN3CCN(C(C)C)CC3)cc(C(F)(F)F)c2)cc1-c1ccc2nc(Nc3cnn(C)c3)ncc2c1 [Compound 26]
Result block: 92.7

Query block: For the compound Cc1ccc(C(=O)Nc2cc(CN3C[C@H]4CC[C@@H](C3)N4C)cc(C(F)(F)F)c2)cc1-c1ccc2nc(Nc3cnn(C)c3)ncc2c1 [Compound 31] , what inhibition at 0.01 µM is on record?
Result block: 95

Query block: Given Cc1ccc(C(=O)Nc2cc(CN3CCCN(C)CC3)cc(C(F)(F)F)c2)cc1-c1ccc2nc(Nc3cnn(C)c3)ncc2c1 [Compound 30] , state its recorded inhibition at 0.01 µM.
Result block: 93.2
